- Test system: SW-579
- Experiment: MTS tetrazolium cytotoxicity assay
- Assay type: cell-based
- Recorded Conditions: Homo sapiens, SW579, 72 h, read-out: Cytotoxic activity (IC50)
Reported Metric: IC50
# number then unit; no other words

Which IC50 value is on record for C=C1NC(=O)C(C(C)C)NC(=O)C(C(C)CC)NC(=O)c2nc(oc2-c2ccccc2)-c2coc(n2)-c2csc(n2)-c2coc(n2)-c2coc1n2 (stereo not shown) ?
452 nM

====

- Test system: LNCAP
- Experiment: MTS tetrazolium cytotoxicity assay
- Assay type: cell-based
- Recorded Conditions: Homo sapiens, 72 h, read-out: Cytotoxic activity (IC50)
Reported Metric: pIC50
Scale note: pIC50 = -log10(concentration in M).

If you can, please state the reported pIC50 value of C=C1NC(=O)C(C(C)C)NC(=O)C(C(C)CC)NC(=O)c2nc(oc2-c2ccccc2)-c2coc(n2)-c2csc(n2)-c2coc(n2)-c2coc1n2 (stereo not shown) .
6.19

====

- Tested on: K562
- Experiment: MTS tetrazolium cytotoxicity assay
- Format: cell-based
- Recorded Conditions: Homo sapiens, K562, 72 h, read-out: Cytotoxic activity (IC50)
- Description: The finality of these assays is to interrupt the growth of an “in vitro” tumour cell culture by means a continued exhibition of the cells to the sample to be testing. The following human cell lines were used: […] Medium containing drug was removed at the end of the treatment and culture plates rinsed one time with PBS. […] Optical densities were read at 490 nm on spectrophotometer plate reader. Data was analyzed using Softmax. […]
Reported Metric: pIC50
For clarity, pIC50 is expressed as the negative log10 of concentration in mol/L.

Observed pIC50 on K562 for C=C1NC(=O)C(C(C)C)NC(=O)C(C(C)CC)NC(=O)c2nc(oc2-c2ccccc2)-c2coc(n2)-c2csc(n2)-c2coc(n2)-c2coc1n2 (stereo not shown) , please.
6.20

====

- Experiment: Maximum tolerated dose in mice
- Recorded Conditions: CD-1, mouse, in vivo
Reported Metric: MTD

Data request, read-out MTD, for C=C1NC(=O)C(C(C)C)NC(=O)C(C(C)CC)NC(=O)c2nc(oc2-c2ccccc2)-c2coc(n2)-c2csc(n2)-c2coc(n2)-c2coc1n2 (stereo not shown)
3.5 mg/kg

====

- Tested on: MC116
- Experiment: MTS tetrazolium cytotoxicity assay
- Assay type: cell-based
- Recorded Conditions: Homo sapiens, MC116, 72 h, read-out: Cytotoxic activity (IC50)
- Experimental: The finality of these assays is to interrupt the growth of an “in vitro” tumour cell culture by means a continued exhibition of the cells to the sample to be testing. The following human cell lines were used: […] Medium containing drug was removed at the end of the treatment and culture plates rinsed one time with PBS. […] Optical densities were read at 490 nm on spectrophotometer plate reader. Data was analyzed using Softmax. […]
Reported Metric: IC50 (µM)
Supply the numeric figure in µM, leaving out any unit text.

I would be grateful if you could share the reported IC50 for C=C1NC(=O)C(C(C)C)NC(=O)C(C(C)CC)NC(=O)c2nc(oc2-c2ccccc2)-c2coc(n2)-c2csc(n2)-c2coc(n2)-c2coc1n2 (stereo not shown) .
3.39
